These measurements were taken from paper PMC9482650.

# Measured target: T1, SNTG2, Q9NY99
# T1 sequence (Q9NY99 68-166, limits assumed, looked up): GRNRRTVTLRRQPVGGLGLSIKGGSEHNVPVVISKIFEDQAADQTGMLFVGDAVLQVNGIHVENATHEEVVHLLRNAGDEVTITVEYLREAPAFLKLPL
# Procedure text: holdup assay
# Parameters: key: below the threshold = too weak to quantify, mostly under pKd 3.1 to 4
# Condition: plain residues with an end cap or a label only (N-terminal biotin on a linker: ttds)
Endpoint name: pKd
Keep it simple and answer with nothing but the number.

LCALPKVTTV [AGMAT, Q9BSE5]    4.24
SEKHFRETEV [HTLV1-TAX1, P03409]    4.12
RTRQRNETQV [HPV51-E6, P26554]    4.22

Field: next binder
Incoming: What value of pKd has been recorded for this entry: DPRNTQTSQI [ABRAXAS2, Q15018]
Outgoing: 3.7
